- measurementDescription: Permeability from basolateral to apical side in human Caco2 cells
- Type: ADME, cell-based
- conditionDetails: Caco-2, read-out: permeability
metricName: Papp B→A (×10⁻⁶ cm/s)
All answers are understood in ×10⁻⁶ cm/s, so give the number only.

Please look at this molecule and report its Papp B→A: COc1cnc(O[C@@H]2C[C@@H](C(=O)N[C@]3(C(=O)NS(=O)(=O)C4CC4)C[C@H]3C(F)F)N(C(=O)[C@@H](NC(=O)OC(C)(C)C)C(C)(C)C)C2)c2cc(Cl)ccc12
4.7

---

- measurementDescription: Permeability from apical to basolateral side in human Caco2 cells
- Type: ADME, cell-based
- conditionDetails: Caco-2, read-out: permeability
metricName: Papp A→B

Please look at this molecule and report its Papp A→B: COc1cnc(O[C@@H]2C[C@@H](C(=O)N[C@]3(C(=O)NS(=O)(=O)C4CC4)C[C@H]3C(F)F)N(C(=O)[C@@H](NC(=O)OC(C)(C)C)C(C)(C)C)C2)c2cc(Cl)ccc12
< 1.5 ×10⁻⁶ cm/s
